Test: acute toxicity, mice
Conditions: mouse, in vivo, iv, read-out: DL/50 (the source's name)
valueType: LD50 (mg/kg)
# output: bare number, implied unit mg/kg

Output measured LD50 for this item: O=C(CN1CCNCC1)NC1CCCCC1 [C/63, N-[1-piperazinylacetyl]-cyclohexylamine]
271

###

Assay: acute toxicity, rats
Conditions: rat, in vivo, po, os, read-out: DL/50 (the source's name)
valueType: LD50 (mg/kg)
# output: bare number, implied unit mg/kg

Output measured LD50 for this item: O=C(CN1CCNCC1)NC1CCCCC1 [C/63, N-[1-piperazinylacetyl]-cyclohexylamine]
3900

###

Reported LD50 is given for each of the following molecules.
Test: acute toxicity, mice
Conditions: mouse, in vivo, po, os, read-out: DL/50 (the source's name)
# output: bare number, implied unit mg/kg

> print(dat)
                                   molecule  numericresult
1  O=C(CN1CCNCC1)NC1CCCCC1 [C/63, N-[1-piperazinylacetyl]-cyclohexylamine]           1970

Kindly consider the entry below.
Output measured LD50 for this item: CC1CCC(NC(=O)CN2CCNCC2)CC1 (centres unmarked) [C/82]
1790
